These entries and their values trace back to ChEMBL document CHEMBL3792340.

- procedure.text: Binding affinity to Cu2+ assessed as association constant after 10 to 60 mins by UV-visible spectra analysis
measurement.name: logKa
Lab note: record the figure alone, no unit after it.

Query: Consider the compound COc1cc(C2/C(=C\c3ccc(O)c(O)c3)C(=O)c3cccn32)ccc1O (centres undefined) and give its recorded logKa.
Result: 4.65

Query: Identify measured logKa associated with O=C1/C(=C/c2ccc(O)c(O)c2)C(c2ccc(O)c(O)c2)n2cccc21 (centres undefined)
Result: 4.7

Query: Using known records, supply logKa for O=C1/C(=C/c2ccc(O)c(O)c2)C(c2ccccc2)n2cccc21 (centres undefined)
Result: 5.65

Query: Answer with the recorded logKa for the compound listed here: COc1ccc(C2/C(=C\c3ccc(O)c(O)c3)C(=O)c3cccn32)cc1O (centres undefined)
Result: 4.15

* * *

Listed here: items and their measured pKd.
- procedure.text: Binding affinity to Cu2+ assessed as dissociation constant after 10 to 60 mins by UV-visible spectra analysis
As a rule, pKd stands for the negative log10 of the concentration, concentration in M.

# count of solved cases: 3
1) COc1ccc(C2/C(=C\c3ccc(O)c(O)c3)C(=O)c3cccn32)cc1O (centres undefined)	4.15
2) COc1cc(C2/C(=C\c3ccc(O)c(O)c3)C(=O)c3cccn32)ccc1O (centres undefined)	4.66
3) O=C1/C(=C/c2ccc(O)c(O)c2)C(c2ccc(O)c(O)c2)n2cccc21 (centres undefined)	4.70

# next compound below
Query: Tell me pKd reported for O=C1/C(=C/c2ccc(O)c(O)c2)C(c2ccccc2)n2cccc21 (centres undefined)
Result: 5.66

* * *

The entries below come with measured half-life at 20 µM values attached.
- procedure.text: Half life in 10 mM phosphate buffer at 20 uM at pH 7.4 at 25 degC by UHPLC analysis
- Format: physicochemical
Write the numeric value and append its unit.

Query: Please supply the value of reported half-life at 20 µM for the item O=C1/C(=C/c2ccc(O)c(O)c2)C(c2ccc(O)c(O)c2)n2cccc21 (stereo not drawn)
Result: 6.4 h

Query: Give reported half-life at 20 µM value for COc1cc(C2/C(=C\c3ccc(O)c(O)c3)C(=O)c3cccn32)ccc1O (stereo not drawn)
Result: 6.8 h

Query: Look up half-life at 20 µM of COc1ccc(C2/C(=C\c3ccc(O)c(O)c3)C(=O)c3cccn32)cc1O (stereo not drawn) and report it.
Result: 11.9 h

* * *

- procedure.text: Metal chelating activity of the compound assessed as formation of iron complex at 50 uM after 10 mins by UV-visible spectroscopy
- Assay type: physicochemical
measurement.name: Activity

Below: 8 compounds and their reported Activity.
1. COc1cc(C2/C(=C\c3ccc(O)c(O)c3)C(=O)c3cccn32)ccc1O (configuration not stated)	Active
2. COc1ccc(C2/C(=C\c3ccc(O)c(O)c3)C(=O)c3cccn32)cc1O (configuration not stated)	Active
3. COc1ccc(/C=C2/C(=O)c3cccn3C2c2ccc(OC)c(O)c2)cc1O (configuration not stated)	Active
4. COc1cc(C2/C(=C\c3cc(OC)c(OC)c(OC)c3)C(=O)c3cccn32)ccc1O (configuration not stated)	Not Active
5. COc1ccc(C2/C(=C\c3ccc(O)c(OC)c3)C(=O)c3cccn32)cc1O (configuration not stated)	Active
6. COc1ccc(/C=C2/C(=O)c3cccn3C2c2ccc(O)c(OC)c2)c(OC)c1 (configuration not stated)	Not Active
7. COc1cc(/C=C/C(=O)CC(=O)/C=C/c2ccc(O)c(OC)c2)ccc1O	Active
8. COc1cc(/C=C2/C(=O)c3cccn3C2c2ccc(O)c(OC)c2)ccc1O (configuration not stated)	Active

Query: // Input: O=C1/C(=C/c2ccc(O)c(O)c2)C(c2ccccc2)n2cccc21 (configuration not stated) . Output its Activity only.
Result: Active

Query: Recall and state the measured Activity for COc1cc(C2/C(=C\c3cc(OC)c(O)c(OC)c3)C(=O)c3cccn32)ccc1O (configuration not stated) .
Result: Not Active

Query: For the compound O=C1/C(=C/c2ccc(O)c(O)c2)C(c2ccc(O)c(O)c2)n2cccc21 (configuration not stated) , give its measured Activity value.
Result: Active

Query: Indicate its recorded Activity; the compound in question is COc1ccc(/C=C2/C(=O)c3cccn3C2c2ccc(O)c(OC)c2)cc1O (configuration not stated)
Result: Not Active

* * *

- target.under.test: UniProtKB P05067
- Sequence (P05067 whole entry): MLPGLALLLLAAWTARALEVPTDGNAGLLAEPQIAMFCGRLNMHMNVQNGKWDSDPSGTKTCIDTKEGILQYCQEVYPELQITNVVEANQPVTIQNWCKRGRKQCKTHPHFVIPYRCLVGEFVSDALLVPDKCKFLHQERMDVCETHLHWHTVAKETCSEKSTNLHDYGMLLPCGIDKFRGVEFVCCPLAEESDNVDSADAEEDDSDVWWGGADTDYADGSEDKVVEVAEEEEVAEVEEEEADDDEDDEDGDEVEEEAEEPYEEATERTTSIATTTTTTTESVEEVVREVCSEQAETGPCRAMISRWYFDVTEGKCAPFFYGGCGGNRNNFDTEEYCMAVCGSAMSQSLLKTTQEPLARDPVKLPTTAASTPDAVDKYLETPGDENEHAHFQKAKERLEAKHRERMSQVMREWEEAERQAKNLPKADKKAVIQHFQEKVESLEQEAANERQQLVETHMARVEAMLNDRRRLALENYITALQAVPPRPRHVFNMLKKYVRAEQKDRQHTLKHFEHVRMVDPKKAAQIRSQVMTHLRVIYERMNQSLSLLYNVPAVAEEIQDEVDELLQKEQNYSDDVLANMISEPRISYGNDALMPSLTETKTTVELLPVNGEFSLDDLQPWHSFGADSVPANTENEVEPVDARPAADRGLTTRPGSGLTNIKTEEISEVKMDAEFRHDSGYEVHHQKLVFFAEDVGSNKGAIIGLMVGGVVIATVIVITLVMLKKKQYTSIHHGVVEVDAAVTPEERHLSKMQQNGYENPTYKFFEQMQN
- procedure.text: Inhibition of Amyloid beta (1 to 42) (unknown origin) self aggregation at 10 uM measured every 5 mins with shake for 15 secs by ThT fluorescence assay relative to control
Items are presented alongside their recorded inhibition.
Value expressed in %; do not type the unit.

Query: Determine reported inhibition for O=C1/C(=C/c2ccc(O)c(O)c2)C(c2ccccc2)n2cccc21 (centres undefined) ; test system: UniProtKB P05067.
Result: 28.7

Query: Lab note: UniProtKB P05067 assay, enter inhibition for COc1ccc(/C=C2/C(=O)c3cccn3C2c2ccc(O)c(OC)c2)c(OC)c1 (centres undefined) here
Result: 6

Query: For UniProtKB P05067, give inhibition of the listed compound: COc1cc(/C=C2/C(=O)c3cccn3C2c2ccccc2)ccc1O (centres undefined)
Result: 14.5

Query: Consider the compound COc1cc(C2/C(=C\c3cc(OC)c(O)c(OC)c3)C(=O)c3cccn32)ccc1O (centres undefined) tested on UniProtKB P05067; state its inhibition.
Result: 30.1

Query: Provide the reported inhibition (system: UniProtKB P05067) for COc1cc(C2/C(=C\c3cc(OC)c(OC)c(OC)c3)C(=O)c3cccn32)ccc1O (centres undefined)
Result: 23.6

Query: Find inhibition for O=C1/C(=C/c2ccccc2)C(c2ccccc2)n2cccc21 (centres undefined) on UniProtKB P05067 and write it down.
Result: 1.4

Query: Send back UniProtKB P05067 inhibition of COc1ccc(/C=C2/C(=O)c3cccn3C2c2ccc(OC)c(O)c2)cc1O (centres undefined) only.
Result: 8.4

* * *

peroxidation % values by entry
- procedure.text: Antioxidant activity assessed as FeCl2-induced lipoperoxidation at 40 uM incubated for 2 hrs in dark by ferric thiocyanate method
Please give a number only; it is taken to be in %.

// worked examples, peroxidation % included
1. COc1cc(C2/C(=C\c3ccc(OCc4ccccc4)c(OCc4ccccc4)c3)C(=O)c3cccn32)ccc1OCc1ccccc1 (stereo not given)	92.8
2. COc1ccc(C2/C(=C\c3ccc(O)c(O)c3)C(=O)c3cccn32)cc1O (stereo not given)	51.3
3. O=C1/C(=C/c2ccc(O)c(O)c2)C(c2ccccc2)n2cccc21 (stereo not given)	57
4. COc1ccc(/C=C2/C(=O)c3cccn3C2c2ccc(O)c(OC)c2)cc1O (stereo not given)	58.2
5. COc1cc(/C=C2/C(=O)c3cccn3C2c2ccccc2)ccc1O (stereo not given)	67.4

Query: Give the value of peroxidation % reported for the following: COc1cc(/C=C/C(=O)O)ccc1O [FERULATE]
Result: 47

Query: Given COc1ccc(/C=C2/C(=O)c3cccn3C2c2ccc(O)c(OC)c2)c(OC)c1 (stereo not given) , respond with its peroxidation %.
Result: 67.5

Query: Supply measured peroxidation % of COc1cc(C2/C(=C\c3cc(OC)c(O)c(OC)c3)C(=O)c3cccn32)ccc1O (stereo not given) in your reply.
Result: 70.4

Query: Identify measured peroxidation % associated with COc1cc(C2/C(=C\c3ccc(O)c(O)c3)C(=O)c3cccn32)ccc1O (stereo not given)
Result: 50.6

Query: # return recorded peroxidation % for input COc1ccc(/C=C2/C(=O)c3cccn3C2c2ccc(OC)c(O)c2)cc1O (stereo not given)
Result: 71

Query: Given COc1cc(C2/C(=C\c3cc(OC)c(OC)c(OC)c3)C(=O)c3cccn32)ccc1O (stereo not given) , respond with its peroxidation %.
Result: 67.1

Query: Give peroxidation % for O=C1/C(=C/c2ccc(O)c(O)c2)C(c2ccc(O)c(O)c2)n2cccc21 (stereo not given)
Result: 47

Query: Report measured peroxidation %; entry is O=C1/C(=C/c2ccccc2)C(c2ccccc2)n2cccc21 (stereo not given)
Result: 55.1

Query: Give recorded peroxidation %. COc1cc(/C=C2/C(=O)c3cccn3C2c2ccc(O)c(OC)c2)ccc1O (stereo not given)
Result: 48.5

Query: Give the reported value of peroxidation % for this record: COc1ccc(C2/C(=C\c3ccc(O)c(OC)c3)C(=O)c3cccn32)cc1O (stereo not given)
Result: 56.4

* * *

- procedure.text: Antioxidant activity assessed as nitric oxide radical scavenging activity at 40 uM after 3 hrs by Griess assay
- Type: physicochemical
This section presents molecules with their documented Activity values.
Reply numerically in %, unit not repeated.

Query: Answer with reported Activity of COc1cc(C2/C(=C\c3cc(OC)c(O)c(OC)c3)C(=O)c3cccn32)ccc1O (stereo not given)
Result: 35.3

Query: Report measured Activity; entry is COc1ccc(/C=C2/C(=O)c3cccn3C2c2ccc(O)c(OC)c2)cc1O (stereo not given)
Result: 57.7

Query: Kindly indicate its recorded Activity. Item: COc1ccc(/C=C2/C(=O)c3cccn3C2c2ccc(O)c(OC)c2)c(OC)c1 (stereo not given)
Result: 40.3

Query: Dear colleague, please send me the reported Activity for COc1ccc(C2/C(=C\c3ccc(O)c(O)c3)C(=O)c3cccn32)cc1O (stereo not given) when you can.
Result: 57.5

Query: Quote Activity reported for COc1cc(C2/C(=C\c3ccc(O)c(O)c3)C(=O)c3cccn32)ccc1O (stereo not given) please.
Result: 58
